system: P. cepacia; experiment: in vitro antibacterial activity, two-fold serial agar dilution in Mueller-Hinton agar (MIC); assay type: cell-based; settings: Burkholderia cepacia; Pc, 2 strains; read-out: Geometric mean of MIC
value type: MIC (µg/mL)
Form entry: value (µg/mL) — number only.

Here are 4 compounds together with their reported answers.
1. CC(C)(O/N=C(\C(=O)NC1C(=O)N2C(C(=O)O)=C(Cn3cnc4cc(O)c(O)cc43)CS[C@H]12)c1csc(N)n1)C(=O)O (some centres unmarked)	12.5
2. CC(C)(O/N=C(\C(=O)NC1C(=O)N2C(C(=O)O)=C(Cn3ccc4ccc(O)c(=O)c-4c3)CS[C@H]12)c1csc(N)n1)C(=O)O (some centres unmarked)	8.9
3. C[n+]1cn(CC2=C(C(=O)[O-])N3C(=O)C(NC(=O)C(=NOC(C)(C)C(=O)O)c4csc(N)n4)C3SC2)c2cc(O)c(O)cc21 (centres unmarked)	3.2
4. CC(C)(O/N=C(\C(=O)N[C@@H]1C(=O)N2C(C(=O)[O-])=C(C[n+]3ccccc3)CS[C@H]12)c1csc(N)n1)C(=O)O [ceftazidime, reference compound]	18

API: the following record is the query input.
I'd like to know its MIC. The compound in question is CC(C)(O/N=C(\C(=O)NC1C(=O)N2C(C(=O)O)=C(Cn3cc4cc(O)c(=O)cc-4cn3)CS[C@H]12)c1csc(N)n1)C(=O)O (some centres unmarked)
0.57

----------
Listing of entries alongside the reported MIC.
system: X. moltophilia; assay: in vitro antibacterial activity, two-fold serial agar dilution in Mueller-Hinton agar (MIC); type: cell-based; settings: Xm, 4 strains; read-out: Geometric mean of MIC
Form entry: value (µg/mL) — number only.

1. CC(C)(O/N=C(\C(=O)NC1C(=O)N2C(C(=O)O)=C(Cn3cnc4cc(O)c(O)cc43)CS[C@H]12)c1csc(N)n1)C(=O)O (stereo partly shown) [Ia]	3.1
2. C[n+]1cn(CC2=C(C(=O)[O-])N3C(=O)C(NC(=O)C(=NOC(C)(C)C(=O)O)c4csc(N)n4)C3SC2)c2cc(O)c(O)cc21 (stereo not shown) [Id]	0.8
3. CC(C)(O/N=C(\C(=O)NC1C(=O)N2C(C(=O)O)=C(Cn3cc4cc(O)c(=O)cc-4cn3)CS[C@H]12)c1csc(N)n1)C(=O)O (stereo partly shown) [Ic]	6.3

API: the following record is the query input.
I'd like to know its MIC. The compound in question is CC(C)(O/N=C(\C(=O)NC1C(=O)N2C(C(=O)O)=C(Cn3ccc4ccc(O)c(=O)c-4c3)CS[C@H]12)c1csc(N)n1)C(=O)O (stereo partly shown) [Ib]
12.5

Data provenance is patent US5194433A.
